The reader will find IC50 measurements below, all made with Dihydrofolate reductase (Rattus norvegicus, UniProt Q920D2).
Sequence (Q920D2 whole entry): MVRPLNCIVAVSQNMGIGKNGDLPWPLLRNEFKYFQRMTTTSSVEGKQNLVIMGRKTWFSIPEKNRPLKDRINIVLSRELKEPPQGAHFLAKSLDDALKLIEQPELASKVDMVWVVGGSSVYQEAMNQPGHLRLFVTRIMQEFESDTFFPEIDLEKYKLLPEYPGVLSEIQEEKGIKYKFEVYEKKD
Give bare numbers, in nM.

# count of solved cases: 5
[[record]]
entrysmiles = "CCN(Cc1ccc2ccccc2c1)c1ccc2nc(N)nc(N)c2c1"
testresult = 14.5

[[record]]
entrysmiles = "CCN(Cc1cc(Cl)cc(Cl)c1Cl)c1ccc2nc(N)nc(N)c2c1"
testresult = 19

[[record]]
entrysmiles = "CCN(Cc1ccccc1)c1ccc2nc(N)nc(N)c2c1"
testresult = 4.1

[[record]]
entrysmiles = "CCN(Cc1cccc2ccccc12)c1ccc2nc(N)nc(N)c2c1"
testresult = 6.5

[[record]]
entrysmiles = "CCCN(Cc1cc(OC)ccc1OC)c1ccc2nc(N)nc(N)c2c1"
testresult = 5.3


# input Lab request: please report IC50 under test system Dihydrofolate reductase (Rattus norvegicus, UniProt Q920D2) for "CCN(Cc1cc(OC)ccc1OC)c1ccc2nc(N)nc(N)c2c1"
# output 4.8
